B1: Twister Ribozyme (parent)
chain: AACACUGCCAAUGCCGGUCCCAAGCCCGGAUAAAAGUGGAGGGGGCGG

Variants of: B1
protocol summary: self-cleavage, relative activity (ratio to wild type); higher = more cleavage; co-transcriptional
measure name: self-cleavage
Answer with a number only.

The cases that follow already have their self-cleavage on record.
The variant listed as C8A G13A has a reported self-cleavage of 0.359

In plain terms, C25G U37C has a documented self-cleavage of 0.102

Further cases:
// sample C19A A32G , its self-cleavage was 0.177

# self-cleavage (variant: A11C A40U ) is 0.153

variant C14U U18C , self-cleavage observed: 0.594

Each recorded value in this set is attributed to the RNAGym collection of RNA variant scans (doi:10.7554/elife.80360).
